Could you please report measured Activity for the items listed next?
- System: Jurkat
- method: Immunosuppression-mediated cytotoxicity against human Jurkat T cells assessed as reduction in cell viability at 1 mg/ml incubated for 48 hrs by MTT assay relative to control
- Type: cell-based
Where a SMILES comes first, the peptide text is derived from it. [ ]: non-standard residue; d: D form. The star is where a group is joined. Mycophenolyl = COc1c(C)c2c(c(O)c1C/C=C(\C)CCC(=O)*)C(=O)OC2; Arg(NO2) = N=C(NCCC[C@H](N)C(=O)O)N[N+](=O)[O-]
State the answer as a number, implicitly in %.

Fill in the blank: the reported Activity of COC(=O)[C@H](CCCNC(=N)N[N+](=O)[O-])NC(=O)[C@@H]1CCCN1C(=O)[C@H](CCCCNC(=O)[C@@H](N)C(C)C)NC(=O)[C@@H](NC(=O)CC/C(C)=C/Cc1c(O)c2c(c(C)c1OC)COC2=O)[C@@H](C)O (Mycophenolyl-TK(Val)P[Arg(NO2)]-OMe) is ____.
66.56

Fill in the blank: the reported Activity of COC(=O)[C@H](CCCNC(=N)N[N+](=O)[O-])NC(=O)[C@@H]1CCCN1C(=O)[C@H](CCCCN)NC(=O)[C@@H](NC(=O)CC/C(C)=C/Cc1c(O)c2c(c(C)c1OC)COC2=O)[C@@H](C)O (Mycophenolyl-TKP[Arg(NO2)]-OMe) is ____.
85.82

Fill in the blank: the reported Activity of COC(=O)[C@@H](NC(=O)[C@H](CCCCNC(=O)[C@@H](N)C(C)C)NC(=O)[C@@H]1CCCN1C(=O)[C@H](CCCNC(=N)N[N+](=O)[O-])NC(=O)CC/C(C)=C/Cc1c(O)c2c(c(C)c1OC)COC2=O)[C@@H](C)O (Mycophenolyl-[Arg(NO2)]PK(Val)T-OMe) is ____.
63.35

Fill in the blank: the reported Activity of COC(=O)[C@H](CCCNC(=N)N[N+](=O)[O-])NC(=O)[C@@H]1CCCN1C(=O)[C@H](CCCCNC(=O)CN)NC(=O)[C@@H](NC(=O)CC/C(C)=C/Cc1c(O)c2c(c(C)c1OC)COC2=O)[C@@H](C)O (Mycophenolyl-TK(Gly)P[Arg(NO2)]-OMe) is ____.
53.4

Fill in the blank: the reported Activity of `COc1c(C)c2c(c(O)c1C/C=C(\C)CCC(=O)N[C@H](CCCNC(=N)N[N+](=O)[O-])C(=O)O)C(=O)OC2` is ____.
75.14

Fill in the blank: the reported Activity of COC(=O)[C@@H](NC(=O)[C@H](CCCCNC(=O)[C@H](C)N)NC(=O)[C@@H]1CCCN1C(=O)[C@H](CCCNC(=N)N[N+](=O)[O-])NC(=O)CC/C(C)=C/Cc1c(O)c2c(c(C)c1OC)COC2=O)[C@@H](C)O (Mycophenolyl-[Arg(NO2)]PK(Ala)T-OMe) is ____.
53.9

Fill in the blank: the reported Activity of COC(=O)[C@H](CCCNC(=N)N[N+](=O)[O-])NC(=O)[C@@H]1CCCN1C(=O)[C@H](CCCCNC(=O)[C@@H](N)CC(C)C)NC(=O)[C@@H](NC(=O)CC/C(C)=C/Cc1c(O)c2c(c(C)c1OC)COC2=O)[C@@H](C)O (Mycophenolyl-TK(Leu)P[Arg(NO2)]-OMe) is ____.
67.04
